biological target: T1, DR5-Fc (UniProt O14763 56-182, limits assumed); assay: phage ELISA, target-Fc against non-specific control
T1 construct: purified recombinant target-Fc protein; not shown: Fc
T1 sequence (O14763 56-182 limits assumed): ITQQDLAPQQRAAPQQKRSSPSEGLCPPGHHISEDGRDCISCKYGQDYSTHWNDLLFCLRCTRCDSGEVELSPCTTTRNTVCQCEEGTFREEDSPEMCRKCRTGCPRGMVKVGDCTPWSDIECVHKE
observable: ELISA ratio (target to background) (ratio)

{"columns": ["binder", "obs.value"],
 "data": [
  ["SEQ ID NO 33 (designed binder) MGSWTYFKEHLAEIKYMLEALGGSEAELAHFEVAIADFEKMLQYYKGKGNPEVEALRKEAAAIRDELQAYRHN", 10.3],
  ["SEQ ID NO 32 (designed binder) MGSWIYFKEHLAYIKKELEALGGSEAELAHFESAIAVFESTLQYYKGKGNPEVEALRKEAAAIRDELQAYRHN", 10.7],
  ["SEQ ID NO 31 (designed binder) MGSWHYFKGHLAEIKNHLEALGGSEAELAHFERAIAAFERSLQWYKGKGNPEVEALRKEAAAIRDELQAYRHN", 10.8]
]}
